Biological target: Estrogen receptor beta (Homo sapiens)
Sequence (Q92731 whole entry): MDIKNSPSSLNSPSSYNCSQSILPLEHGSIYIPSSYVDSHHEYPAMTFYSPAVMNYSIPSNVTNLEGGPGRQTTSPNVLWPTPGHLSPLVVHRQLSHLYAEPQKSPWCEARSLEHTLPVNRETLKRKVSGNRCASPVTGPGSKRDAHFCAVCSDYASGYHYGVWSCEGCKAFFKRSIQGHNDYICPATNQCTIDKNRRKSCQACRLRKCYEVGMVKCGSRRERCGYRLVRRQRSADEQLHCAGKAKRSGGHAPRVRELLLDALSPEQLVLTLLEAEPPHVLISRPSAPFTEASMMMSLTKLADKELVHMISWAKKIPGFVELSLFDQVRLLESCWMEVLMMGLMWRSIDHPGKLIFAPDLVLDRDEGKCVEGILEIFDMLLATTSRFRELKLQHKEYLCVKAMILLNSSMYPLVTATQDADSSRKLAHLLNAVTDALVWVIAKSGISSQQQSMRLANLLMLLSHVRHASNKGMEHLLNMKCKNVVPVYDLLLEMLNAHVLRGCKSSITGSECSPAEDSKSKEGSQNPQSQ
Test: ERβ–SRC-3 coactivator interaction inhibitors, confirmation, orthogonal assay, biochemical, ELISA, streptavidin-HRP readout (AID 1060)
Please go through the items and note down their IC50.

I am curious: what IC50 value has been reported for CC1CCN(Cc2ccc(NC(=O)C3CCN(c4nnc(-n5cccc5)s4)CC3)cc2)CC1 ?
1.1 µM (not active)

I am curious: what IC50 value has been reported for Cc1nc2ncnn2c(N2CCN(C(=O)Cc3cccs3)CC2)c1C ?
0.107 µM (not active)

I am curious: what IC50 value has been reported for O=C(O)C1Nc2c(O)cccc2C2C=CCC12 (stereo not given) ?
> 50 µM (not active)

I am curious: what IC50 value has been reported for CCc1ccc2nc(O)c(C3C(C#N)=C(N)Oc4c3ccc3cccnc43)cc2c1 (stereo not given) ?
2.79 µM (not active)

I am curious: what IC50 value has been reported for COc1ccc2c(c1)c(=O)oc1cc3oc(C)c(C)c3cc12 ?
0.205 µM (not active)

====

Biological target: Heat shock factor protein 1 (Mus musculus, UniProt P38532)
Sequence (P38532 whole entry): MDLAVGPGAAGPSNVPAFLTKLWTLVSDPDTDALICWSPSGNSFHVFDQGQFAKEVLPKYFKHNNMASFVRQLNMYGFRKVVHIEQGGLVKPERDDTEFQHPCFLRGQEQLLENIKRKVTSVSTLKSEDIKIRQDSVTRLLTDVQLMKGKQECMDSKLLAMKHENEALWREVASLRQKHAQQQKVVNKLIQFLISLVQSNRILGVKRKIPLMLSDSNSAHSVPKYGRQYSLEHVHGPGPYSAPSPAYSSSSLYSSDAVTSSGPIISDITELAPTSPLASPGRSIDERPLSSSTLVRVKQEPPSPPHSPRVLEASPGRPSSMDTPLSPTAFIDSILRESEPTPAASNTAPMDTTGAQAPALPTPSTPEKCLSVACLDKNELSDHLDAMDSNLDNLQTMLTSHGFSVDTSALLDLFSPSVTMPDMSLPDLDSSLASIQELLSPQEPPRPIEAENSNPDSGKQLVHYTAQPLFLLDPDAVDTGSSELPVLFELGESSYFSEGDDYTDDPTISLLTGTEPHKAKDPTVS
Assay: inhibition of MG132-induced HSE-luciferase signal, confirmation, cell-based, NIH3T3, luminescence, dose retest (AID 2382);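 further: NIH3T3 fibroblasts with HSF1-driven luciferase reporter stressed by proteasome inhibitor MG132; luminescence from HSF1-driven luciferase expression after 8 hours of MG132 stress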
Format: functional
Activity calls are given as the source filed them.
Outcome Measure: EC50

Field: EC50 (Heat shock factor protein 1 (Mus musculus, UniProt P38532)). Entry: CCn1c(SCC(=O)Nc2ccc(N(C)C)cc2)nnc1-c1cccc(C)c1
> 195 µM (not active)

Field: EC50 (Heat shock factor protein 1 (Mus musculus, UniProt P38532)). Entry: CCN1CCc2c(OCc3ccccc3)cccc2C1=O
37.3 µM (active)

Field: EC50 (Heat shock factor protein 1 (Mus musculus, UniProt P38532)). Entry: Cc1cc(S(=O)(=O)Nc2ccc(C(=O)NCC(C)(C)N3CCOCC3)cc2)ccc1F
> 195 µM (not active)

Field: EC50 (Heat shock factor protein 1 (Mus musculus, UniProt P38532)). Entry: NNC(=O)c1ccc(N2CCc3ccccc32)c([N+](=O)[O-])c1
> 195 µM (not active)

Field: EC50 (Heat shock factor protein 1 (Mus musculus, UniProt P38532)). Entry: Oc1ccc(Nc2nc3ccccc3nc2Nc2ccc(O)cc2)cc1
> 195 µM (not active)

Field: EC50 (Heat shock factor protein 1 (Mus musculus, UniProt P38532)). Entry: Cc1nc2sc3c(NCc4ccco4)ncnc3c2c2c1COC(C)(C)C2
> 195 µM (not active)

Field: EC50 (Heat shock factor protein 1 (Mus musculus, UniProt P38532)). Entry: COCCNC(=O)CSC1=N/C(=C/c2ccc(Cl)c(Cl)c2)C(=O)N1c1ccccc1F
20 µM (active)

Field: EC50 (Heat shock factor protein 1 (Mus musculus, UniProt P38532)). Entry: CC(C)(C)[C@H]1C=C(C(=O)Nc2ccccc2)O[C@@H](OCCCCO)C1
5.49 µM (active)

Field: EC50 (Heat shock factor protein 1 (Mus musculus, UniProt P38532)). Entry: CCO/C(C)=C1/SC(=S)NC1=O
> 195 µM (not active)

Field: EC50 (Heat shock factor protein 1 (Mus musculus, UniProt P38532)). Entry: COc1nc(-c2ccccc2)ccc1-c1noc(COc2ccccc2)n1
> 195 µM (not active)

Field: EC50 (Heat shock factor protein 1 (Mus musculus, UniProt P38532)). Entry: CC(C)(C)NC(=O)c1c(F)c(F)c(F)c(F)c1F
> 195 µM (not active)

====

Assay: THP-1 cell cytotoxicity, dose response, cytotoxicity control for non-replicating M. tuberculosis project (AID 489025)
Type: functional
Activity calls are given as the source filed them.
Outcome Measure: CC50

I am curious: what CC50 value has been reported for O=C1NC(=O)N(Cc2ccccc2Cl)C(=O)/C1=C/c1ccc[nH]1 ?
9.35 µM (active)

I am curious: what CC50 value has been reported for N=C(N)N/N=C/c1cn(-c2ccccc2)nc1-c1cccs1.O=[N+]([O-])O ?
12.3 µM (active)

I am curious: what CC50 value has been reported for CCOC(=O)N1CCN(Cc2cc(Cl)c3cccnc3c2O)CC1 ?
4.35 µM (active)

I am curious: what CC50 value has been reported for O=C(NC1CCCCC1)c1nc(O)c2nnn(Cc3ccccc3Cl)c2n1 ?
> 40 µM (active)

I am curious: what CC50 value has been reported for CC(=O)Nc1nc2ccccc2n1Cc1ccccc1Cl ?
14.1 µM (active)

====

Please go through the items and note down their IC50.
Biological target: Rac GTPase-activating protein 1 (Homo sapiens, UniProt Q9H0H5)
Sequence (Q9H0H5 whole entry): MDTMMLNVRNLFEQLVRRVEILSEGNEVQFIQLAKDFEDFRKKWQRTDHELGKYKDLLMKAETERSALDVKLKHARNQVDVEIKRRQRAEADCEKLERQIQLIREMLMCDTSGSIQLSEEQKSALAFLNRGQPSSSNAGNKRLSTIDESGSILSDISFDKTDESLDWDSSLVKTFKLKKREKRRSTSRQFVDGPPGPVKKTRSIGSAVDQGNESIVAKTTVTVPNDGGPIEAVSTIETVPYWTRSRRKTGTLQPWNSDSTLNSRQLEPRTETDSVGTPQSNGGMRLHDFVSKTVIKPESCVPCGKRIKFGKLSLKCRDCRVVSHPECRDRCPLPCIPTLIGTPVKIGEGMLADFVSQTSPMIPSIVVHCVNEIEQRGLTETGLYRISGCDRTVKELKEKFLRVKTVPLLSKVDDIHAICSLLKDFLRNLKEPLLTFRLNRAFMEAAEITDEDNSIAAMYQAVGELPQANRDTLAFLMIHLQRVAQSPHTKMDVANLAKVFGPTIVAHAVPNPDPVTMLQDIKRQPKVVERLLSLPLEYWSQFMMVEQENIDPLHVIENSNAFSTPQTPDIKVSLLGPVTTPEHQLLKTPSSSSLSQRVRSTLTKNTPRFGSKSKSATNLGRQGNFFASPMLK
Assay: MgcRacGAP GTPase-activating activity inhibitors, confirmation, biochemical, ADP Hunter fluorescence, primary and confirmatory (AID 624330)
Type: functional
Active and inactive are the calls of the source.

I am curious: what IC50 value has been reported for Oc1ccc(/C=N/Nc2nccnc2Cl)c(O)c1 ?
12.7 µM (active)

I am curious: what IC50 value has been reported for O=[N+]([O-])c1ccc(N/N=C/c2ccc[nH]2)cc1 ?
44.5 µM (active)

I am curious: what IC50 value has been reported for Cc1c(N=Nc2ccc(O)cc2)c(=O)n(-c2ccccc2)n1C ?
19.8 µM (active)

I am curious: what IC50 value has been reported for COc1cc(/C=C(\C#N)C(=O)c2c[nH]c3ccccc23)cc(OC)c1O ?
43.6 µM (active)

I am curious: what IC50 value has been reported for CCCCN(CC)CCNC(=O)c1cc2c(-c3ccc(Cl)cc3)nn(C)c2s1 ?
229 µM (active)

I am curious: what IC50 value has been reported for Cc1[nH]c2ccccc2c1-c1csc(NC(=O)CSCCO)n1 ?
122 µM (active)

I am curious: what IC50 value has been reported for COc1ccc(CN2CCN(Cc3ccco3)CC2)cc1OC ?
69.2 µM (active)

I am curious: what IC50 value has been reported for O=C(c1cccnc1)N1CCN(Cc2cccc(Br)c2)CC1 ?
117 µM (active)

I am curious: what IC50 value has been reported for COc1cc2c(cc1N)-c1ccc(N)cc1C2 ?
10.7 µM (active)

I am curious: what IC50 value has been reported for CCc1ccc(/C(C)=N/NC(=O)CNC(=O)/C=C/c2ccco2)cc1 ?
106 µM (active)

I am curious: what IC50 value has been reported for Oc1ccc(/C=N/N=C/c2ccc(O)cc2)cc1 ?
77.6 µM (active)

I am curious: what IC50 value has been reported for O=C(CNC(=O)c1ccccc1Br)N/N=C/c1ccc(O)cc1 ?
58.7 µM (active)

====

Please go through the items and note down their EC50.
Test: Luminescence Cell-Based Dose Confirmation HTS to Identify Activators of 5'UTR Stem-Loop Driven Alpha-Synuclein mRNA Translation in H4 Neuroglioblastoma Cells. [Related pubchem assays: 1829 (Project Summary), 1814 (Primary HTS)]
Assay type: functional
Active and inactive are the calls of the source.

I am curious: what EC50 value has been reported for Clc1ccc(-c2cc3ccccc3[nH]2)cc1 ?
3.77 µM (active)

I am curious: what EC50 value has been reported for CCCCC/N=C(/C)c1c(O)oc2ccccc2c1=O ?
> 120 µM (not active)

I am curious: what EC50 value has been reported for c1ccc2oc(C3=NN=C(NC4CC4)SC3)cc2c1 ?
> 120 µM (not active)

I am curious: what EC50 value has been reported for Cc1nn(C)c(Sc2ccccn2)c1[N+](=O)[O-] ?
1.7 µM (active)

I am curious: what EC50 value has been reported for OC1(C(F)(F)F)CC(O)(C(F)(F)F)n2nc(-c3ccccc3)cc2N1 (configuration not stated) ?
> 120 µM (not active)

I am curious: what EC50 value has been reported for Cc1ccccc1Oc1cc(NC(=O)Cn2cnc([N+](=O)[O-])c2)cc([N+](=O)[O-])c1 ?
> 120 µM (not active)

I am curious: what EC50 value has been reported for CCn1c(/C=C/c2ccc([N+](=O)[O-])o2)nc2ccccc2c1=O ?
> 120 µM (not active)

====

Please go through the items and note down their AC50.
Target: Cytochrome P450 2C19 (Homo sapiens, UniProt P33261)
Sequence (P33261 whole entry): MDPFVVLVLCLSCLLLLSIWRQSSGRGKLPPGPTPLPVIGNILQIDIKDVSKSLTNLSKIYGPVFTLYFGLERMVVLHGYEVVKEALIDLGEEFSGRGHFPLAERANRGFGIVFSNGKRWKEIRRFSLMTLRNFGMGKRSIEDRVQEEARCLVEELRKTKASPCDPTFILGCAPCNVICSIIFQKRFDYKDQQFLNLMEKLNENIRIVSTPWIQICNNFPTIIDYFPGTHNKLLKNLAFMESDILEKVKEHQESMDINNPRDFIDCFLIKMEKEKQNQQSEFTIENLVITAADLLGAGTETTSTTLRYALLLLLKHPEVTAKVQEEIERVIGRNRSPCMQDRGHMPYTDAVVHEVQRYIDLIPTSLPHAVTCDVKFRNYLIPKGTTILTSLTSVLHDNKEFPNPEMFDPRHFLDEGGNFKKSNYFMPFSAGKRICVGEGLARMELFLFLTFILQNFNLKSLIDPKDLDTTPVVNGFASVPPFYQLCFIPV
Assay: Cytochrome panel assay with activity outcomes. Panel member name: p450-cyp2c19 Compounds with AC50 equal or less than 10 uM are considered active
Assay type: functional
Conditions: read-out: AC50

I am curious: what AC50 value has been reported for CCN(CC)C(=O)CSc1nnc(C2CCCCC2)o1 ?
11.2 µM (inconclusive)

I am curious: what AC50 value has been reported for Cc1cccc(C(=O)N2CCC(c3nc(-c4ccc(S(=O)(=O)N5CCOCC5)cc4)no3)CC2)c1 ?
15.8 µM (inconclusive)

I am curious: what AC50 value has been reported for CCCCNCCOCCSc1ccc(Cl)cc1 ?
17.8 µM (inconclusive)

I am curious: what AC50 value has been reported for COc1ccc(OC)c2nc(O)c(CCNS(=O)(=O)c3ccccc3)cc12 ?
3.16 µM (inconclusive)

I am curious: what AC50 value has been reported for CCNc1ncc2nc(CCc3ccccc3)c(=O)n(-c3ccccc3)c2n1 ?
31.6 µM (inconclusive)

I am curious: what AC50 value has been reported for CC(C)CNC(=O)c1nc(-c2ccccc2)n(-c2ccccc2)n1 ?
39.8 µM (inconclusive)

I am curious: what AC50 value has been reported for C[C@]12Cc3cn4c(nc3C=C1CC[C@H]1[C@@H]2CC[C@@]2(C)[C@H]1CC[C@@]2(O)C#N)nc1ccccc14 ?
7.94 µM (inconclusive)

I am curious: what AC50 value has been reported for COc1ccc(C(=O)NC(=S)NNC(=O)CCc2ccccc2)cc1 ?
14.1 µM (inconclusive)

I am curious: what AC50 value has been reported for OCCN1CCN(CCC=C2c3ccccc3Sc3ccc(Cl)cc32)CC1 [ZUCLOPENTHIXOL] ?
2.51 µM (inconclusive)

I am curious: what AC50 value has been reported for CCCC[C@@H]1C[C@H]1C(NC(=O)c1cccs1)c1ccc(-c2ccccc2)cc1 (some centres undefined) ?
3.16 µM (inconclusive)

I am curious: what AC50 value has been reported for CCC(=O)Nc1ccc(C(=O)NNC(=O)c2cccs2)cc1 ?
0.891 µM (inconclusive)

I am curious: what AC50 value has been reported for COc1cc(OC)c(/C=C2/C(=O)Nc3ccccc32)c(OC)c1 ?
31.6 µM (inconclusive)

I am curious: what AC50 value has been reported for CCCS(=O)(=O)N1CCCC(C(=O)NCC2CCCO2)C1 (centres undefined) ?
39.8 µM (inconclusive)

I am curious: what AC50 value has been reported for COc1cc(C(=O)Nc2ccc(-c3nnc(-c4ccco4)o3)cc2)cc(OC)c1OC ?
6.31 µM (inconclusive)

I am curious: what AC50 value has been reported for COc1cccc(Cn2c(=O)c(-c3ccccc3)nc3cnc(OC)nc32)c1 ?
39.8 µM (inconclusive)

I am curious: what AC50 value has been reported for CCC/C=C(\CCC)C(NC(=O)c1ccc(C(=O)OC)cc1)c1ccc(C(=O)OC)cc1 (centres undefined) ?
10 µM (inconclusive)

I am curious: what AC50 value has been reported for O=C(O)/C=C\C(=O)NCc1ccccc1 ?
0.0158 µM (inconclusive)

I am curious: what AC50 value has been reported for O=C(CSc1nnc(-c2cccs2)n1-c1ccccc1)N1CCCC1 ?
28.2 µM (inconclusive)

I am curious: what AC50 value has been reported for COc1ccccc1-c1ccc2ncnc(N3CCN(C)CC3)c2c1 ?
15.8 µM (inconclusive)
